The measured values listed here are drawn from PubChem BioAssay (NCATS).

Tested on: Zika virus NS2B-NS3 protease (linked construct)
method: Primary screen NINDS Rhodamine qHTS for Zika virus inhibitors (AID 1347160); note: nearly all actives have a fitted effect of over 55% in size
measurement.context: purified NS2B-NS3 protease, Rhodamine110 substrate fluorescence; series mostly up to 33.1 µM
Excerpt: Avindra Nath, Ph.D., National Institute of Neurological Disorders and Stroke (NINDS), Bethesda, MD Radhakrishnan Padmanabhan, Ph.D., Georgetown University (GU), Washington D.C. Zika Virus causes congenital defects, including microcephaly and is associated with Guillain-Barre syndrome, eningoencephalitis and myelitis in infected adult. […]
Inconclusive results are not listed. The source made the active and inactive calls. Calls come from the whole dose curve; as a rule, active = well fitted inhibition curve with a large enough effect; inconclusive = small, poorly fitted or top-dose-only effect; inactive = no such curve, though single readings can be large or run the other way. *1 amine or outer side, *2 acyl side, *3 side chain or, on linkers, in order; H or OH if unused. Where a SMILES comes first, the peptide text is derived from it. Bridges are numbered along the chain shown (N, C = ends). [ ]: non-standard residue; d: D form. The star is where a group is joined. ξ: configuration not given here. ξhTyr(3S-OH,4S-OH,3'-OSO3H) = NC(C(=O)O)[C@H](O)[C@@H](O)c1ccc(O)c(OS(=O)(=O)O)c1; Orn(4R-OH,5R-OH) = O=C([C@H](C[C@@H](O)[C@@H](O)N[*:3])N[*:1])[*:2]; X2 = CCCCCOc1ccc(-c2cc(-c3ccc(C(=O)*)cc3)no2)cc1; X3 = C[C@H]1CN([*:1])C(C(=O)[*:2])[C@H]1O; ξGln(3R-OH) = NC(=O)C[C@@H](O)C(N)C(=O)O; ξPro(4R-OH) = O=C(O)C1C[C@@H](O)CN1; ξThr(3R) = C[C@@H](O)C(N)C(=O)O
Possible outcomes: active, inactive

| compound | category.label |
| --- | --- |
| CC(C)CC[C@@H](O)[C@](C)(O)[C@H]1CC[C@@]2(O)C3=CC(=O)[C@@H]4C[C@@H](O)[C@@H](O)C[C@]4(C)[C@H]3CC[C@]12C | inactive |
| CC(=O)O[C@@H]1[C@@H](O)[C@H](C)O[C@@H](O[C@H]2[C@@H]3C=CO[C@@H](O[C@@H]4O[C@H](CO)[C@@H](O)[C@H](O)[C@H]4OC(C)=O)[C@@H]3[C@@]3(CO)O[C@@H]23)[C@@H]1OC(=O)/C=C/c1ccc(O)cc1 | inactive |
| CC1=CC(=O)CC(C)(C)C1CO[C@@H]1O[C@H](CO)[C@@H](O)[C@H](O)[C@H]1O (stereo partly specified) | inactive |
| C[C@H]1[C@H](C)C[C@@H](C(=O)O)C2CC[C@]3(C)C(=CC[C@@H]4[C@@]5(C)CC[C@H](O)C(C)(C)[C@@H]5CC[C@]43C)[C@@H]21 (stereo partly specified) | inactive |
| Nc1ncnc2c1C(=O)N(c1ccc(C3CCC(CC(=O)O)CC3)cc1)CCO2 (stereo unspecified) | inactive |
| COC(=O)C[C@@H]1C(C(=O)O)=CO[C@@H](O[C@@H]2O[C@H](CO)[C@@H](O)[C@H](O)[C@H]2O)/C1=C\COC(=O)/C=C/c1ccc(O)c(OC)c1 | inactive |
| CC1(C)COC(=O)[C@@H]1O[C@@H]1O[C@H](CO)[C@@H](O)[C@H](O)[C@H]1O | inactive |
| CCC(C)/C=C(C)/C=C/C1=CC2=C(Cl)C(=O)C(C)(OC(C)=O)C(=O)C2=CN1C(CCCN=C(N)N)C(=O)O (stereo unspecified) | inactive |
| COC(=O)C1=CO[C@@H](O[C@@H]2O[C@H](CO)[C@@H](O)[C@H](O)[C@H]2O)[C@@H]2[C@@H](C)[C@@H](OC(=O)/C=C/c3ccccc3)[C@@H](O)[C@H]12 | inactive |
| O=C(OC[C@H]1O[C@H](O[C@H]2CO[C@H](CO)[C@@H](O)[C@@H]2O)[C@H](O)[C@@H](O)[C@H]1O)c1ccccc1 | inactive |
| CCCCCOc1ccc(-c2cc(-c3ccc(C(=O)N[C@H]4C[C@@H](O)[C@@H](O)NC(=O)C5[C@@H](O)[C@@H](C)CN5C(=O)C([C@H](O)CC(N)=O)NC(=O)C([C@H](O)[C@@H](O)c5ccc(O)c(OS(=O)(=O)O)c5)NC(=O)C5C[C@@H](O)CN5C(=O)C([C@@H](C)O)NC4=O)cc3)no2)cc1 (stereo partly drawn) (X2-[Orn(4R-OH,5R-OH)][ξThr(3R)][ξPro(4R-OH)][ξhTyr(3S-OH,4S-OH,3'-OSO3H)][ξGln(3R-OH)][X3]; lactam 1-C) | active |

====

Test system: HEK293
method: Cytotoxic Profiling of Annotated Libraries Using Quantitative High-Throughput Screening (AID 1296008); note: % is set by controls: 0 for no effect and ±100 for the full control effect; nearly all actives have a fitted effect of over 60% in size
measurement.context: Five cell lines viability, CellTiter-Glo ATP luminescence, 48-72 h; active compounds read low
Records with an inconclusive call do not appear.
Recorded max response by entry
assay.endpoint: max response (%)

| compound | observed |
| --- | --- |
| C=C1[C@@H]2CC[C@@]3(C)[C@H](c4ccoc4)OC(=O)C[C@]13O[C@H]1CC(=O)C(C)(C)[C@H](C(O)C(=O)OC)[C@]12C (stereo not given in full) | -5.89 |
| CC1=C2C[C@@]3(C)[C@@H](CCC[C@@H]3C)C[C@@]2(O)OC1=O | -2.55 |
| CC(NC(=O)CC(=O)O)C(=O)Nc1ccccc1C(N)=O (stereo not given) | 2.48 |
| Cc1cc(Cn2cnc3c2CC(C(=O)O)N(C(=O)C(c2ccccc2)c2ccccc2)C3)ccc1N(C)C (stereo not given) | -1.68 |
| CC/C=C\[C@H](O)[C@H](O)C1=C(C)C(=O)[C@]2(O1)C(=O)N[C@@](O)(C(=O)c1ccccc1)[C@@H]2O | 2.91 |
| CCCC(=O)Nc1cccc(NC(=O)c2ccccc2Br)c1 | -4.38 |
| CC1(C)CC[C@]2(C(=O)O)CC[C@]3(C)C(=CCC4[C@@]5(C)C[C@@H](O)[C@H](O)[C@@](C)(CO)C5[C@H](O)C[C@]43C)[C@@H]2C1 (stereo not given in full) | -6.35 |
| CN1CCN(C(=O)c2cc3cc(Cl)ccc3[nH]2)CC1 | -8.86 |
| C/C=C/C1OC2=C(C(=O)OC2(C)O)C(O)C1O (stereo not given) | -1.4 |
| COC(=O)[C@H](c1ccccc1Cl)N1CCC2SC(=O)C=C2C1 (stereo not given in full) | -11.7 |
| CC1OC(OC2C(OC3C(O[C@H]4CC[C@@]5(C)C(CC[C@]6(C)C5C(=O)CC5=C7CC(C)(C)CC(O)[C@]7(C)CC[C@]56C)C4(C)C)OC(C(=O)O)C(O)C3O)OCC(O)C2O)C(O)C(O)C1O (stereo not given in full) | 2.58 |
| O=C(Cn1c2ccccc2c2nc3n(c(=O)c21)CCS3)N1CCCC1 | -15.3 |
| C[C@H]1[C@H](C)CC[C@]2(C(=O)OC3OC(CO)C(O)C(O)C3O)CC[C@]3(C(=O)O)C(=CCC4[C@@]5(C)CC[C@H](O[C@@H]6O[C@@H](C)[C@H](OC7OC(CO)C(O)C(O)C7O)[C@@H](O)[C@H]6O)C(C)(C)C5CC[C@]43C)[C@H]12 (stereo not given in full) | 2.35 |
| COc1cc(C2Oc3c(OC)cc(/C=C/C(=O)OC4CC(O)(C(=O)O)CC(O)C4O)cc3C2CO)ccc1O (stereo not given) | 1.22 |
| CC(=O)OCC1OC(OC2COC(OC3COC(OC4C(OC5C(CO)OC(OC6CCC7(C)C(CCC8(C)C7CC=C7C9CC(C)(C)CCC9(C(=O)OC9OC(CO)C(O)C(O)C9OC9OCC(OC%10OCC(O)(CO)C%10O)C(O)C9O)C(O)CC78C)C6(C)C)C(O)C5O)OCC(O)C4O)C(O)C3O)C(O)C2O)C(OC(=O)/C=C/c2ccccc2)C(O)C1OC(C)=O (stereo not given) | -18.2 |

====

Test system: Nanoluciferase (engineered Oplophorus gracilirostris luciferase)
method: Primary Nanoluciferase (NLuc) qHTS assay for identification of artifact compounds. (AID 1845222);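 note: NLuc secreted into diluted conditioned medium of S16 cells; 0% = DMSO and -100% = no enzyme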
measurement.context: NLuc-conditioned medium, Nano-Glo luminescence, 5 min; series mostly up to 54.1 µM
Activity calls are given as the source filed them. Calls follow the shape of the dose curve; as a rule, active = well fitted inhibition curve with a large enough effect; inconclusive = small, poorly fitted or top-dose-only effect; inactive = flat fitted curve, though single readings scatter. Where a SMILES comes first, the peptide text is derived from it.

| molecule | activity, negative = inhibition |
| --- | --- |
| CC1(C)C[C@H]2C=C(C=O)[C@]3(C(=O)O)C[C@]3(C)[C@H]2C1 | inactive |
| COC(=O)Cn1nc(-c2cccc(OC)c2)c2ccccc21 | inactive |
| CC1CCC2C(C)(C)[C@H](O)CC[C@]2(C)C12Cc1c(O)cc3c(c1O2)CN(C(CCC(=O)O)C(=O)O)C3=O (stereo partly drawn) | inactive |
| CN1CCCC1Cc1c[nH]c2ccc(CCS(=O)(=O)c3ccccc3)cc12 (stereo not drawn) | inactive |
| COc1ccc(/C=C/C(=O)O[C@@H]2[C@@H](OC(C)=O)[C@@H](OC(C)=O)[C@H](O[C@H]3[C@@H]4C=CO[C@@H](O[C@@H]5O[C@H](CO)[C@@H](O)[C@H](O)[C@H]5O)[C@@H]4[C@@]4(CO)O[C@@H]34)O[C@H]2C)cc1 | inactive |
| CC(=O)NC(Cc1ccccc1)C(=O)NC(C(=O)O)C(C)C (stereo not drawn) (Ac-Phe-Val-OH; configuration not given here) | inactive |
| O=C(O[C@H]1[C@H](Oc2ccc(O)cc2CO)O[C@H](CO)[C@@H](O)[C@@H]1O)c1ccccc1 | inactive |
| COc1cccc(C)c1C(=O)O[C@@H]1C[C@H](O[C@H]2[C@H](O)C[C@H](O[C@@H]3CCC[C@H]4[C@H]3C=C[C@@H]3CCCC/C=C/[C@H]5C=C(C(=O)O)[C@@H](C)C[C@@]56OC(=O)C(=C6O)OC(=O)[C@@]34C)O[C@@H]2C)O[C@H](C)[C@H]1O | 4.95% [at 11.6 µM] (inactive) |
| CC(C)=CCc1c(O)cc2oc3cc(C)cc(O)c3c2c1C | inactive |
| C=C1CC[C@@H]2C(C)(C)CCC[C@@]2(C)[C@@H]1CC/C(=C/C(=O)OC)COC(C)=O | inactive |
| CC(C)(O)C1OC1C1=CC(=O)C2(C)OC2C1O (stereo not drawn) | inactive |
| C/C=C/C=C/C(O)=C1/C(=O)[C@]2(C)C3/C(=C(O)/C=C/C=C/C)C(=O)C4(C)C1[C@]1(C)O[C@@]4(O)[C@@]3(C)O[C@@]12O | inactive |
| C[C@H]1CC[C@@]2(OC1)O[C@H]1CC3C4CC[C@H]5C[C@@H](O[C@@H]6O[C@H](CO)[C@H](O[C@@H]7O[C@H](CO)[C@@H](O)[C@H](O[C@@H]8OC[C@@H](O)[C@H](O)[C@H]8O)[C@H]7O[C@@H]7O[C@H](CO)[C@@H](O)[C@H](O)[C@H]7O)[C@H](O)[C@H]6O)[C@H](O)C[C@]5(C)C4=CC(=O)[C@]3(C)[C@H]1[C@@H]2C (stereo partly drawn) | 0% [at 11.6 µM] (inactive) |
